Data provenance: patent US20050282843A1

Here the recorded melting point is given for each entry.

Solved cases below.
- molecule: "Cc1ccc(Nc2nccc(-c3sc(=O)n(C)c3C)n2)cc1[N+](=O)[O-] [Compound 36]"
  assay readout: "melting point"
  result: "88.4 to 91.6 °C"
- molecule: "Cc1[nH]c(C#N)c(C)c1-c1ccnc(Nc2ccc(C(F)(F)F)cc2)n1 [Compound 4]"
  assay readout: "melting point"
  result: "195.6 to 198.9 °C"
- molecule: "Cc1cc(Nc2nccc(-c3c(C)[nH]c(C#N)c3C)n2)ccc1Cl [Compound 9]"
  assay readout: "melting point"
  result: "194.2 to 197.9 °C"
- molecule: "Cc1[nH]c(Br)c(C)c1-c1ccnc(Nc2cccc([N+](=O)[O-])c2)n1 [Compound 17]"
  assay readout: "melting point"
  result: "198.1 to 203 °C"
- molecule: "Cc1[nH]c(C#N)c(C)c1-c1ccnc(Nc2ccc(I)cc2)n1 [Compound 5]"
  assay readout: "melting point"
  result: "178.3 to 181.2 °C"

Pending molecule:
Looking for the measured melting point of Cc1ccc(Nc2nccc(-c3c(C)[nH]c(C#N)c3C)n2)cc1I [Compound 8] , can you help?
189.5 to 191.7 °C
